Data origin, for the record: patent US20070021484A1

Target: CCXCKR2 receptor (Homo sapiens, UniProt P25106)
Construct: The compounds were combined with mammary gland cells expressing the CCXCKR2 receptor in the presence of the ^125I-labeled chemokine
Sequence (P25106 whole entry): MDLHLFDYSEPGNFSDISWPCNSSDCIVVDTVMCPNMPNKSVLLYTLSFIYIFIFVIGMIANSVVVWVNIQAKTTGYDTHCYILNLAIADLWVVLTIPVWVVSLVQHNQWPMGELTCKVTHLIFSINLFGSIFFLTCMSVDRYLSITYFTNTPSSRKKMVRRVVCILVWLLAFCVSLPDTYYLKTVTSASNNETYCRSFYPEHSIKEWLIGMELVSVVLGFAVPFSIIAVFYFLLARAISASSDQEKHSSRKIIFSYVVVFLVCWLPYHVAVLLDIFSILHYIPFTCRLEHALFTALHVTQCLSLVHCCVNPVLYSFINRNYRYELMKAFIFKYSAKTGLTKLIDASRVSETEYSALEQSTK
Experiment: Displacement of 125I-labeled SDF-1 from the CCXCKR2 receptor (radioligand binding, determination of IC50 values)
Conditions: concentration displacing at least 50% of 125I SDF-1 from CCXCKR2; MCF-7 and/or CCXCKR2 transfected MDA-MB-435S cells; 3 hr at 4° C.
pIC50: −log10 of the molar value. Structures can show the parent of a compound that is named as a salt.
Assignment: determine reported pIC50 for the given molecules.

Provide pIC50 for all items below, preserving their order.
1. COc1ccc(C(=O)N(C/C(C)=C/c2ccc(F)cc2F)CC2CCC3COCCN32)cc1OC (stereo not drawn)
2. COc1cc(C(=O)N(C/C(C)=C/c2ccccc2)CC2CCCN2C[C@H]2CC[C@@H](NC(C)C)CC2)cc2c1OC(C)(C)O2 (stereo partly drawn)
3. COc1cc(C(=O)N(C/C(C)=C/c2ccc(F)cc2F)Cc2nccn2C)ccc1OC(F)F
4. COc1ccc(C(=O)N(CC2=NCCN2)C/C(C)=C/c2ccc(F)cc2F)cc1OC [Compound 19, hydrochloride]
5. COc1cc(C(=O)N(C/C(C)=C/c2ccc(F)cc2F)C[C@@H]2CCCN2C[C@H]2CC[C@@H](NS(C)(=O)=O)CC2)ccc1OC(F)F
6. COc1cc(C(=O)N(C/C(C)=C/c2ccc(F)cc2F)C[C@@H]2CCCN2CC2(N(C)C)CCCC2)ccc1OC(F)F (stereo in doubt)
7. COc1ccc(C(=O)N(C/C(C)=C/c2ccc(F)cc2F)C[C@@H]2CCCN2C[C@H]2CC[C@@H](N)C2)cc1OC
8. COc1ccc(C(=O)N(C/C(C)=C/c2ccc(F)cc2F)C[C@@H]2CCCN2CC2CCC(N)CC2)cc1OC (stereo partly drawn)

1. ≥ 5.68
2. ≥ 6.30
3. ≥ 5.68
4. ≥ 6.30
5. ≥ 6.30
6. ≥ 6.30
7. ≥ 6.30
8. ≥ 6.30

Provide pIC50 for all items below, preserving their order.
1. COc1ccc(C(=O)N(C/C(C)=C/c2ccc(F)cc2F)C[C@@H]2CCCN2C[C@H]2CC[C@H](NS(C)(=O)=O)CC2)cc1OC
2. COc1cc(C(=O)N(C/C(C)=C/c2ccc(F)cc2F)C[C@H]2CCCN2C[C@H]2CC[C@@H](N)CC2)ccc1OC(F)F
3. COc1cc(C(=O)N(C/C(C)=C/c2ccccc2)C[C@@H]2C[C@@H]3CCC[C@@H]3N2)cc2c1OC(C)(C)O2

1: ≥ 6.30; 2: ≥ 6.30; 3: ≥ 6.30

Provide pIC50 for all items below, preserving their order.
1. COc1cc(C(=O)N(C/C(C)=C/c2ccccc2)C[C@@H]2C[C@@H]3CCCC[C@@H]3N2)cc2c1OC(C)(C)O2
2. COc1ccc(C(=O)N(C/C(C)=C/c2ccc(F)cc2F)C[C@@H]2CCCN2C[C@H]2CC[C@@H](N)CC2)cc1OC
3. COc1ccc(C(=O)N(C/C(C)=C/c2ccc(F)cc2F)C[C@@H]2C[C@@H]3CCCC[C@@H]3N2)cc1OC
4. COc1cc(C(=O)N(C/C(C)=C/c2ccc(F)cc2F)CC2CCCN2CC2(N)CCCC2)ccc1OC(F)F (stereo not drawn)

≥ 6.30
≥ 6.30
≥ 6.30
≥ 6.15

----------
Biological target: CCXCKR2 receptor (Homo sapiens)
Construct: The compounds were combined with mammary gland cells expressing the CCXCKR2 receptor in the presence of the ^125I-labeled chemokine; host or cells: MCF-7 (endogenous receptor) and/or MDA-MB-435S stably transfected with pcDNA3.1(+)-hRDC1
Assay: Displacement of 125I-labeled SDF-1 from the CCXCKR2 receptor (radioligand binding, determination of IC50 values)
Details: concentration displacing at least 50% of 125I SDF-1 from CCXCKR2; MCF-7 and/or CCXCKR2 transfected MDA-MB-435S cells; 3 hr at 4° C.
Property Label: IC50

Solved entries (count: 2):
COc1cc(C(=O)N(C/C(C)=C/c2ccc(F)cc2F)CC2CCCN2CC2(NS(C)(=O)=O)CCCC2)ccc1OC(F)F (stereo not drawn) :: ≤ 500 nM
COc1cc(C(=O)N(C/C(C)=C/c2ccc(F)cc2F)C[C@@H]2C[C@@H]3CCCC[C@@H]3N2)cc2c1OC(C)(C)O2 :: ≤ 500 nM

From here, focus on the item given below.
What value of measured IC50 is listed for "COc1cc(C(=O)N(C/C(C)=C/c2ccc(F)cc2F)C[C@@H]2C[C@@H]3CCCC[C@@H]3N2)ccc1OC(F)F" ?
≤ 500 nM
